Listing of entries alongside the reported pIC50.
Biological target: 3H-CCK-8-(SO3H) binding, bovine striatum homogenate (Bos taurus, UniProt P79266)
pIC50: −log10 of the molar value. Where a SMILES comes first, the peptide text is derived from it.
assay metric: pIC50

1. CSCC[C@H](NC(=O)[C@H](Cc1ccc(OS(=O)(=O)O)cc1)NC(=O)[C@@H](N)CC(=O)O)C(=O)NCC(=O)N[C@@H](Cc1c[nH]c2ccccc12)C(=O)N[C@@H](CCSC)C(=O)N[C@@H](CC(=O)O)C(=O)N[C@@H](Cc1ccccc1)C(N)=O :: 8.34 to 9.00
2. CSCC[C@@H]1NC(=O)[C@H](Cc2c[nH]c3ccccc23)NC(=O)CNC(=O)[C@@H](NC(=O)[C@H](Cc2ccc(OS(=O)(=O)O)cc2)NC(C)=O)CCCCNC(=O)C[C@@H](C(=O)N(C)[C@@H](Cc2ccccc2)C(N)=O)NC1=O [Example 1] (HELM PEPTIDE1{[ac].[O=C([C@H](Cc1ccc(OS(=O)(=O)O)cc1)N[*:1])[*:2]].K.G.W.M.D.[meF].[am]}$PEPTIDE1,PEPTIDE1,3:R3-7:R3$$$V2.0) :: 5.52
3. CCCC[C@@H]1NC(=O)[C@H](Cc2c[nH]c3ccccc23)NC(=O)CNC(=O)[C@@H](NC(=O)[C@H](Cc2ccc(OS(=O)(=O)O)cc2)NC(C)=O)CCCCNC(=O)C[C@@H](C(=O)N(C)[C@@H](Cc2ccccc2)C(N)=O)NC1=O (HELM PEPTIDE1{[ac].[O=C([C@H](Cc1ccc(OS(=O)(=O)O)cc1)N[*:1])[*:2]].K.G.W.[Nle].D.[meF].[am]}$PEPTIDE1,PEPTIDE1,3:R3-7:R3$$$V2.0) :: < 6.00

====

Listing of entries alongside the reported IC50.
Target: 3H-CCK-8-(SO3H) binding, bovine striatum homogenate (Bos taurus)
Construct: tissue homogenate (striatum 0.26 mg protein in 2 ml final volume; pancreas 0.165 mg protein in 1 ml final volume); from tissue; host or cells: bovine striatum membrane homogenate
Sequence (P79266 1-454): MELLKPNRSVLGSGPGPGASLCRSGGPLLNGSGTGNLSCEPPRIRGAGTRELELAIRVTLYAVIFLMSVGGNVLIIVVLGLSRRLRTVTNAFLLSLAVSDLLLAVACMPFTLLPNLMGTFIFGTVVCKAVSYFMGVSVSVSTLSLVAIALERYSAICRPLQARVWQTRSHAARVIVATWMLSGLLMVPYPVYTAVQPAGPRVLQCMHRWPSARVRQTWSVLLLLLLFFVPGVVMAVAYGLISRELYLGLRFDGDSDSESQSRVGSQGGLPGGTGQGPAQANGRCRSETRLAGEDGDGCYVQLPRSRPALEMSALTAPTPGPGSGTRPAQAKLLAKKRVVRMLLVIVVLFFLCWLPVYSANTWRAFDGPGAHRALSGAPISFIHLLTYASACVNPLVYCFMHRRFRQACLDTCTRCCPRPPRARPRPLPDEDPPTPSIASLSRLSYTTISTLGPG
Experiment: In vitro receptor binding assay, bovine striatum
Conditions: 0.15 nM 3H-CCK-8-(SO3H), 30 min, 25° C.; read-out: Bovine Striatum IC50 (inhibition of specific 3H-CCK-8-(SO3H) binding)
Where a SMILES comes first, the peptide text is derived from it.
assay metric: IC50

1) CSCC[C@@H]1NC(=O)[C@H](Cc2c[nH]c3ccccc23)NC(=O)CNC(=O)[C@@H](NC(=O)[C@H](Cc2ccc(OS(=O)(=O)O)cc2)NC(C)=O)CCCCNC(=O)C[C@@H](C(=O)N[C@@H](Cc2ccccc2)C(N)=O)NC1=O (HELM PEPTIDE1{[ac].[O=C([C@H](Cc1ccc(OS(=O)(=O)O)cc1)N[*:1])[*:2]].K.G.W.M.D.F.[am]}$PEPTIDE1,PEPTIDE1,3:R3-7:R3$$$V2.0) :: > 1 µM
2) CSCC[C@@H]1NC(=O)[C@H](Cc2c[nH]c3ccccc23)NC(=O)CNC(=O)[C@@H](NC(=O)[C@H](Cc2ccc(OS(=O)(=O)O)cc2)NC(C)=O)CCCNC(=O)C[C@@H](C(=O)N(C)[C@@H](Cc2ccccc2)C(N)=O)NC1=O (HELM PEPTIDE1{[ac].[O=C([C@H](Cc1ccc(OS(=O)(=O)O)cc1)N[*:1])[*:2]].[Orn].G.W.M.D.[meF].[am]}$PEPTIDE1,PEPTIDE1,3:R3-7:R3$$$V2.0) :: 52 µM
3) CSCC[C@@H]1NC(=O)[C@H](Cc2ccc(OS(=O)(=O)O)cc2)NC(=O)CC[C@@H](C(=O)N[C@H](C(=O)N(C)[C@@H](Cc2ccccc2)C(N)=O)[C@@H](C)OS(=O)(=O)O)NC(=O)[C@H](Cc2c[nH]c3ccccc23)NC(=O)CNC1=O [Example 3] (HELM PEPTIDE1{[O=C([C@H](Cc1ccc(OS(=O)(=O)O)cc1)N[*:1])[*:2]].M.G.W.E.[C[C@@H](OS(=O)(=O)O)[C@H](N[*:1])C(=O)[*:2]].[meF].[am]}$PEPTIDE1,PEPTIDE1,1:R1-5:R3$$$V2.0) :: > 10 µM

Reference source: patent US4808701A
